Test system: NCI-H226 lung
assay.protocol: NCI tumour cell line growth inhibition, 48 h
test.readout: TGI

Param item = CN(C)CCCNC(CC#N)CCC#N (configuration not stated) ; retrieve measured TGI.
> 10 µM

Return reported TGI; argument: CN(C)C(=O)OC(Cn1cncn1)c1ccc(Cl)cc1Cl (configuration not stated)
> 100 µM

Which TGI reading was recorded for the compound CN(C)CCNc1c2c(c(NCCN(C)C)c3[nH]ccc13)C(=O)c1ccccc1C2=O ?
15.8 µM

Looking for the measured TGI of C=CC/C=C/Cc1csc(C(C)(C)C(O)C/C=C/C(=C)CCNC(=O)OC)n1 (configuration not stated) , can you help?
> 100 µM

Which measured TGI value corresponds to CCCCC(CC)CN=C(N)NC(N)=NCCCCCCN=C(N)NC(N)=NCC(CC)CCCC (configuration not stated) ?
7.48 µM

What does the record list as TGI for O=C1c2cccnc2C(=O)c2nc3cc(N4CCN(C5CC5)CC4)ccc3nc21 ?
4.08 µM

Endpoint output: TGI of O=C1[C@H]2ON(c3ccccc3)C(c3ccccc3Cl)[C@H]2C(=O)N1c1ccc(Cc2ccc(N3C(=O)[C@@H]4ON(c5ccccc5)C(c5ccccc5Cl)[C@@H]4C3=O)cc2)cc1 (some centres not stated) . Value?
> 100 µM

Recorded TGI for COc1ccc(/C=C(/C#N)C(N)=O)cc1OC , please?
> 100 µM

Query (compound): NCCn1c(=O)[nH]c(=O)[nH]c1=S ; field requested: TGI
> 100 µM

Consider the compound CCCC(=O)OC1C(C(O)CO)OC2OC(C)(C)OC21 (configuration not stated) and give its measured TGI.
> 100 µM

What does the record list as TGI for COc1ccc2c(c1)cn1c3ccc(O)cc3nc(N)c21 ?
23.2 µM

Reported TGI for O=c1cc(NNc2ccccc2)[nH]c(=S)[nH]1 : what is it?
> 100 µM

Need TGI of COc1cccc(-c2c(C#N)c(N)nc3c2CCS(=O)(=O)c2ccc(C)cc2-3)c1 , thanks.
> 100 µM

Item O=C(/C=C/c1ccccc1)CCN1CCN(CCC(=O)/C=C/c2ccccc2)CC1 has what recorded TGI?
64.4 µM

For the compound shown here, Cc1nc2cccc(F)c2c(=O)n1C1CCCCNC1=O (configuration not stated) , give the reported TGI.
> 10 µM

Look up TGI for this compound: CC(=O)N1C(c2[nH]c3ccccc3c2-c2ccccc2)CCN1c1ccccc1 (configuration not stated)
> 10 µM

Query: TGI; subject: O=C1CC(c2ccc(O)cc2)C2(O1)C(=O)OC(C(O)CO)C2O (configuration not stated)
> 100 µM

Recorded TGI for CCCCCCCCCCCCCCCCN1CC2CCCCC2C1 (configuration not stated) , please?
16.8 µM

TGI for COc1ccc2nc(-n3c(/C=C/c4ccccc4O)nc4ccccc4c3=O)sc2c1 ?
> 100 µM

Please look up its TGI: COc1ccc2oc(=N)c(C(=O)NCc3ccccc3)cc2c1
85 µM

Which TGI is reported for this compound? CCOC(CN=C=S)OCC
> 10 µM

Report TGI for COc1cc(C(=O)C/C(CCCC(=O)Nc2ccccc2[N+](=O)[O-])=N/NC(=O)c2cc3ccccc3cc2O)ccc1O please.
> 100 µM
